Property: variant/wild-type; scope: individual binders
# study_target: T1, mouse tissue factor pathway inhibitor (TFPI) (mouse, UniProt O54819 29-289, limits assumed)
# T1 construct: bought; also called mTFPI; murine TFPI
# T1 sequence (looked up): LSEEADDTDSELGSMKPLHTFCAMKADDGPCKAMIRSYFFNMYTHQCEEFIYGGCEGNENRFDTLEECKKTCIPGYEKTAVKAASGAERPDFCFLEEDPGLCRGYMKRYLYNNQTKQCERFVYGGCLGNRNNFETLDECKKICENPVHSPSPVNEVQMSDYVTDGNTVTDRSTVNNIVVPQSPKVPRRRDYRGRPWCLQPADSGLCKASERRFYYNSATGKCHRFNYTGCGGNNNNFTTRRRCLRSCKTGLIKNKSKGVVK
# test_method_notes: competitive ELISA
A number alone suffices; assume ratio.

binder	u	variant/wild-type
2A8 LC_Y48F (Fab, V domains shown, also called 2A8-14) VH: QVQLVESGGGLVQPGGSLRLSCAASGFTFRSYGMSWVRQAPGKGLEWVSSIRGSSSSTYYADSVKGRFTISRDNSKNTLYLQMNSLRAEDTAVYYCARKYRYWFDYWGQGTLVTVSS VL: DIELTQPPSVSVAPGQTARISCSGDNLRNYYAHWYQQKPGQAPVVVIFYDNNRPSGIPERFSGSNSGNTATLTISGTQAEDEADYYCQSWDDGVPVFGGGTKLTVLG	ratio	3.2
2A8 HC_G33K (Fab, V domains shown) VH: QVQLVESGGGLVQPGGSLRLSCAASGFTFRSYKMSWVRQAPGKGLEWVSSIRGSSSSTYYADSVKGRFTISRDNSKNTLYLQMNSLRAEDTAVYYCARKYRYWFDYWGQGTLVTVSS VL: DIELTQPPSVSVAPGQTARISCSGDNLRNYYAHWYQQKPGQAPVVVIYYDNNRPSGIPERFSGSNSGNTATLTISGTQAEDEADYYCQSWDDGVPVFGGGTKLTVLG	ratio	0.7
2A8 LC_D91R (Fab, V domains shown) VH: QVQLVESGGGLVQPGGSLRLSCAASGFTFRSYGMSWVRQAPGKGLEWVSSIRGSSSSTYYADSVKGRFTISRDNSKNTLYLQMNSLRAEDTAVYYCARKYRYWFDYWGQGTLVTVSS VL: DIELTQPPSVSVAPGQTARISCSGDNLRNYYAHWYQQKPGQAPVVVIYYDNNRPSGIPERFSGSNSGNTATLTISGTQAEDEADYYCQSWRDGVPVFGGGTKLTVLG	ratio	2

Qu. Dear colleague, I am looking for the recorded variant/wild-type of the following binder: 2A8 HC_G33P (Fab, V domains shown, also called 2A8-1) VH: QVQLVESGGGLVQPGGSLRLSCAASGFTFRSYPMSWVRQAPGKGLEWVSSIRGSSSSTYYADSVKGRFTISRDNSKNTLYLQMNSLRAEDTAVYYCARKYRYWFDYWGQGTLVTVSS VL: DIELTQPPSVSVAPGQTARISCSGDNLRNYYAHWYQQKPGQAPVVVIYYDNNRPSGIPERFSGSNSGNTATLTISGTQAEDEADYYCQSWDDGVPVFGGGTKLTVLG
Ans. 2.9

Qu. Dear colleague, I am looking for the recorded variant/wild-type of the following binder: 2A8 HC_I51E (Fab, V domains shown, also called 2A8-6) VH: QVQLVESGGGLVQPGGSLRLSCAASGFTFRSYGMSWVRQAPGKGLEWVSSERGSSSSTYYADSVKGRFTISRDNSKNTLYLQMNSLRAEDTAVYYCARKYRYWFDYWGQGTLVTVSS VL: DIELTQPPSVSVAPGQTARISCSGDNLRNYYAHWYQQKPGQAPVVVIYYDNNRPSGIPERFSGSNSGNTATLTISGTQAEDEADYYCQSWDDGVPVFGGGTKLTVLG
Ans. 0.7
